Test system: KYSE410 cells
assayRemarks: MTT assay for cell proliferation and cytotoxicity
Type: cell-based
testParameters: Homo sapiens, KYSE-410; MTT, 48 h, mean ± SD; read-out: IC50 KYSE410
valueType: pIC50
// field semantics: pIC50 = negative decimal log of concentration (mol/L)

[[record]]
compound = "CCOc1cccc(-n2cc(-c3cccc(Nc4ncnc5cc(OCCOC)c(OCCOC)cc45)c3)nn2)c1 [Compound 3n]"
numericresult = 4.30


[in] Requested read-out: pIC50. Entry: COCCOc1cc2ncnc(Nc3cccc(-c4cn(-c5ccc(OC)cc5OC)nn4)c3)c2cc1OCCOC [Compound 3q]
[out] 4.91

[in] COCCOc1cc2ncnc(Nc3cccc(-c4cn(Cc5cc(Br)cc(Br)c5)nn4)c3)c2cc1OCCOC [Compound 3d] , same question.
[out] 5.16

[in] COCCOc1cc2ncnc(Nc3cccc(-c4cn(Cc5ccccc5)nn4)c3)c2cc1OCCOC [Compound 3a] , same question.
[out] 5.01

[in] COCCOc1cc2ncnc(Nc3cccc(-c4cn(-c5ccccc5OC)nn4)c3)c2cc1OCCOC [Compound 3k] , same question.
[out] 4.49

[in] COCCOc1cc2ncnc(Nc3cccc(-c4cn(Cc5ccccc5I)nn4)c3)c2cc1OCCOC [Compound 3b] , same question.
[out] 4.76

[in] COCCOc1cc2ncnc(Nc3cccc(-c4cn(-c5ccc(C)cc5O)nn4)c3)c2cc1OCCOC [Compound 3r] , same question.
[out] 5.06

====

System: HCC827GR cells
assayRemarks: MTT assay, drug-resistant cell line
Format: cell-based, human
testParameters: Homo sapiens, read-out: IC50 HCC827GR, MTT, gefitinib-resistant lung cancer cell line
pIC50: −log10 of the molar value.
valueType: pIC50

[in] Requested read-out: pIC50. Entry: C#Cc1cccc(Nc2ncnc3cc(OCCOC)c(OCCOC)cc23)c1
[out] < 5.00

====

Reported melting point values are given for each entry in this list.

Use these answered entries as a reference point.
[[record]]
smilesstructure = "COCCOc1cc2ncnc(Nc3cccc(-c4cn(-c5ccccc5OC)nn4)c3)c2cc1OCCOC"
valuetype = "melting point"
result = "87 to 90 °C"

[[record]]
smilesstructure = "COCCOc1cc2ncnc(Nc3cccc(-c4cn(Cc5ccccc5Br)nn4)c3)c2cc1OCCOC"
valuetype = "melting point"
result = "94 to 97 °C"


[in] Requested read-out: melting point. Entry: COCCOc1cc2ncnc(Nc3cccc(-c4cn(Cc5ccccc5)nn4)c3)c2cc1OCCOC
[out] 89 to 92 °C

[in] COCCOc1cc2ncnc(Nc3cccc(-c4cn(-c5ccccc5C(F)(F)F)nn4)c3)c2cc1OCCOC , same question.
[out] 113 to 116 °C

[in] COCCOc1cc2ncnc(Nc3cccc(-c4cn(-c5ccc(C)cc5O)nn4)c3)c2cc1OCCOC , same question.
[out] 100 to 103 °C

====

Test system: KYSE410 cells
assayRemarks: MTT assay for cell proliferation and cytotoxicity
Format: cell-based
testParameters: Homo sapiens, KYSE-410; MTT, 48 h, mean ± SD; read-out: IC50 KYSE410
valueType: IC50

Use these answered entries as a reference point.
[[record]]
compound = "COCCOc1cc2ncnc(Nc3cccc(-c4cn(-c5ccccc5C(F)(F)F)nn4)c3)c2cc1OCCOC [Compound 3p]"
valuetype = "IC50"
result = "> 50 µM"

[[record]]
compound = "COCCOc1cc2ncnc(Nc3cccc(-c4cn(-c5ccc(C)cc5)nn4)c3)c2cc1OCCOC [Compound 3l]"
valuetype = "IC50"
result = "> 50 µM"

[[record]]
compound = "COCCOc1cc2ncnc(Nc3cccc(-c4cn(-c5ccccc5F)nn4)c3)c2cc1OCCOC [Compound 3f]"
valuetype = "IC50"
result = "> 50 µM"

[[record]]
compound = "COCCOc1cc2ncnc(Nc3cccc(-c4cn(Cc5ccccc5Br)nn4)c3)c2cc1OCCOC [Compound 3c]"
valuetype = "IC50"
result = "> 50 µM"

[[record]]
compound = "COCCOc1cc2ncnc(Nc3cccc(-c4cn(-c5cccc(OC)c5)nn4)c3)c2cc1OCCOC [Compound 3e]"
valuetype = "IC50"
result = "> 50 µM"

[[record]]
compound = "COCCOc1cc2ncnc(Nc3cccc(-c4cn(-c5ccc(F)cc5)nn4)c3)c2cc1OCCOC [Compound 3g]"
valuetype = "IC50"
result = "> 50 µM"

[[record]]
compound = "COCCOc1cc2ncnc(Nc3cccc(-c4cn(-c5ccc(Br)cc5)nn4)c3)c2cc1OCCOC [Compound 3j]"
valuetype = "IC50"
result = "> 50 µM"


[in] Requested read-out: IC50. Entry: COCCOc1cc2ncnc(Nc3cccc(-c4cn(-c5ccccc5Br)nn4)c3)c2cc1OCCOC [Compound 3i]
[out] > 50 µM
